Catalogue of variants with associated protein stability index
B1: RIPK4 (parent)
chain: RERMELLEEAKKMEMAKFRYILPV

variants of: B1; experiment: protein stability index of a GFP-peptide fusion (GPS, HEK-293T) (PSI 1-6); higher = more stable; details: c terminus: a fixed tail appended;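 also: lentivirally expressed fusions sorted by FACS into six bins by GFP to DsRed ratio, PSI derived from sequencing read proportions per bin multiplied by bin number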
Parameter: protein stability index

RERMELLEEAKKMEMAKFFYILPV: 1.15
RERMELLEEAKKMEMAKFRFILPV: 2.27
RERMILLEEAKKMEMAKFRYILPV: 2.26
RERMELLEEAKKHEMAKFRYILPV: 3.13
RERMELLEEAKKMEMAKFRYILPM: 3.68
RERMELLEIAKKMEMAKFRYILPV: 2.57
RERMELEEEAKKMEMAKFRYILPV: 3.74
RERMELLEEAKGMEMAKFRYILPV: 2.36
RERMELLEEAPKMEMAKFRYILPV: 2.91
RERMELLEEAKKMEEAKFRYILPV: 4.61
REHMELLEEAKKMEMAKFRYILPV: 3.89
RERMELLEEAKKMEMAKQRYILPV: 3.61
AERMELLEEAKKMEMAKFRYILPV: 3.83
RERMELLEEAHKMEMAKFRYILPV: 3.05
RERMELLEEAKKMEMAKFEYILPV: 3.28
RERMELLEEAKKMEMAKERYILPV: 3.55
RERMELLEEAAKMEMAKFRYILPV: 3.07
RERMELLEEAKKLEMAKFRYILPV: 3.37
RERQELLEEAKKMEMAKFRYILPV: 3.76
RERMELLEEAKKMEMAHFRYILPV: 2.68
RERMESLEEAKKMEMAKFRYILPV: 3.19
REWMELLEEAKKMEMAKFRYILPV: 1.73
RERMELLEEAKKMESAKFRYILPV: 4.59
REAMELLEEAKKMEMAKFRYILPV: 3.48
RERMVLLEEAKKMEMAKFRYILPV: 2.29
RERMELLEEAKKMEIAKFRYILPV: 4.15
CERMELLEEAKKMEMAKFRYILPV: 2.88
RERMELLEEAKKMEMAWFRYILPV: 2.29
RERMELLEEAKKMEMAKFRPILPV: 3.57
RERMELLEEAQKMEMAKFRYILPV: 3.17
RERMELLEEAKKMEMAKFRDILPV: 2.55
RERMELLEEAKKMEMAKFPYILPV: 2.13
RERMELLEEAKKMEMAKFRYILVV: 2.29
RERMELLEENKKMEMAKFRYILPV: 3.85
RERMELLEVAKKMEMAKFRYILPV: 2.43
RERDELLEEAKKMEMAKFRYILPV: 4.17
RERMELLIEAKKMEMAKFRYILPV: 2.11
RERMELLEEDKKMEMAKFRYILPV: 3.99
RERMELLEEAKKMEMAKFRYWLPV: 2.05
RERMELLEEAKKMEMAKFRYYLPV: 2.18
RERMELLEEAKKMEMEKFRYILPV: 2.9
RERMELLEEAKKMEMAKFRYLLPV: 3.42
RERMELLEEAKKMEMAKFYYILPV: 2.38
RERMELLEEQKKMEMAKFRYILPV: 3.79
RERMELLEEAKKMEMAIFRYILPV: 2.72

The values you see were collected from the supplement of paper PMC10567573.
